test system: HOP-92; test: NCI tumour cell line growth inhibition, 48 h
Activity calls are given as the source filed them. Cut-off read from the data, not from the text of the source: active = GI50 up to about 1.1 µM and inactive = higher.
Outcome field: choose from 1.0 = active, 0.0 = inactive

So what was the verdict on N=c1oc2cc(O)ccc2cc1C(=O)Nc1cccc2ccccc12 in this test?
0.0

So what was the verdict on CC1=NOC(=O)/C1=C/c1ccc([N+](=O)[O-])cc1 in this test?
0.0

So what was the verdict on c1ccc2c(c1)N=c1cc3c(cc1N2)=NC12CCCCC1CC1=C(CCCC1)N32 (stereo not drawn) in this test?
0.0

So what was the verdict on CC(C)OP(=O)(OC(C)C)C1=NN(c2ccc([N+](=O)[O-])cc2)C(P(=O)(OC(C)C)OC(C)C)=NN1c1ccc([N+](=O)[O-])cc1 in this test?
0.0

So what was the verdict on OC1(c2ccccc2)C2CC=CC2C1(c1ccccc1)c1ccccc1 (stereo not drawn) in this test?
0.0

So what was the verdict on O=S1(=O)C(=C(c2ccccc2)c2ccccc2)S(=O)(=O)c2ccccc21 in this test?
0.0

So what was the verdict on CCOC(=O)C(=O)Nc1c(CC)cccc1C(C)C in this test?
0.0

So what was the verdict on Cc1ccccc1NC(=O)C(=O)C(C#N)c1ccccc1C (stereo not drawn) in this test?
0.0

So what was the verdict on NNC(=S)N/N=C(\c1nc2ccc(Cl)cc2nc1O)C(O)c1cccc([N+](=O)[O-])c1 (stereo not drawn) in this test?
0.0

So what was the verdict on N=C(N)NS(=O)(=O)c1ccc(NC(=O)c2ccc3nc4ccccc4c(Nc4ccc(S(N)(=O)=O)cc4)c3c2)cc1 in this test?
0.0

So what was the verdict on COc1ccc(N2CN3OC(=O)N(c4ccc(OC)cc4)[C@@]3(c3ccccc3)C2)cc1 in this test?
0.0

So what was the verdict on O=C1CC(c2ccccc2)Oc2ccccc21 (stereo not drawn) in this test?
0.0

So what was the verdict on CC(C)Cn1cnnc1NS(=O)(=O)c1cc(C(=O)NN)c(Cl)cc1S in this test?
0.0

So what was the verdict on CC(C)=CCc1c2c(c(O)c3c(=O)c4c(oc13)-c1ccc(O)cc1OC4C=C(C)C)C=CC(C)(C)O2 (stereo not drawn) in this test?
0.0

So what was the verdict on COc1ccc2nc3cc(Cl)ccc3c(Nc3ccc(O)c(CN4CCN(C)CC4)c3)c2c1 in this test?
0.0

So what was the verdict on CCC12CCC(O)C1N(C)CCC2Sc1ccccc1 (stereo not drawn) in this test?
0.0

So what was the verdict on CC1(O)CC(=O)c2c(cc3ccc(-c4c5c(c(O)c6c(O)cccc46)C(=O)CC(C)(O)C5)c(O)c3c2O)C1 (stereo not drawn) in this test?
1.0

So what was the verdict on CSc1c(C#N)c(O)n(-c2ccc(C)cc2)c(=O)c1C#N in this test?
0.0

Provenance of the data: ChEMBL document CHEMBL1201862
